- System: NCI-H510 multicellular tumor spheroid growth, % test/control
- Assay Notes: Anticancer human tumor NCI-H510 cell line growth inhibition [Asc];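 note: spheroids exposed to agents for 7 days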
- Measurement Parameters: curve of first compound; second compound 0.01 µM
- Source text: Multicellular complex tumor spheroid response to apoptosis pathway targeting inhibitors Alrizomadlin, Pelcitoclax, and Dasminapant in combination with a variety of drugs and investigational agents in selected tumor cell lines […] Compounds. […] If the clinical Cmax for an agent had not been determined, the highest concentration tested was 10 microM. […]
pIC50: −log10 of the molar value.
Measured Attribute: pIC50

Consider the reported pIC50 for these molecules:
{"Molecule": "COc1c(OCCCN2CCOCC2)ccc2c3n(c(=NC(=O)c4cnc(N)nc4)nc12)CCN3 + CNC(C)C(=O)NC1CN(S(=O)(=O)c2cccc(S(=O)(=O)N3CCC4CCC(C(=O)NC(c5ccccc5)c5ccccc5)N4C(=O)C(NC(=O)C(C)NC)C3)c2)CCC2CCC(C(=O)NC(c3ccccc3)c3ccccc3)N2C1=O", "Observed Measurement": "< 6.00"}
{"Molecule": "NC1CCC(NC2CC2c2ccccc2)CC1 (stereo not given) + CNC(C)C(=O)NC1CN(S(=O)(=O)c2cccc(S(=O)(=O)N3CCC4CCC(C(=O)NC(c5ccccc5)c5ccccc5)N4C(=O)C(NC(=O)C(C)NC)C3)c2)CCC2CCC(C(=O)NC(c3ccccc3)c3ccccc3)N2C1=O", "Observed Measurement": "< 7.00"}
{"Molecule": "C=CC(=O)N1CCN(c2nc(=O)n(-c3c(C)ccnc3C(C)C)c3nc(-c4c(O)cccc4F)c(F)cc23)C(C)C1 (stereo not given) + CNC(C)C(=O)NC1CN(S(=O)(=O)c2cccc(S(=O)(=O)N3CCC4CCC(C(=O)NC(c5ccccc5)c5ccccc5)N4C(=O)C(NC(=O)C(C)NC)C3)c2)CCC2CCC(C(=O)NC(c3ccccc3)c3ccccc3)N2C1=O", "Observed Measurement": "< 5.00"}
{"Molecule": "C#Cc1c(F)ccc2cc(O)cc(-c3ncc4c(N5CC6CCC(C5)N6)nc(OCC56CCCN5CC(F)C6)nc4c3F)c12 (stereo not given) + CNC(C)C(=O)NC1CN(S(=O)(=O)c2cccc(S(=O)(=O)N3CCC4CCC(C(=O)NC(c5ccccc5)c5ccccc5)N4C(=O)C(NC(=O)C(C)NC)C3)c2)CCC2CCC(C(=O)NC(c3ccccc3)c3ccccc3)N2C1=O", "Observed Measurement": "< 5.00"}

Now examine the next entry.
Notebook: CCN1C(C(=O)NC23CCC(C(=O)O)(CC2)CC3)C(c2cccc(Cl)c2F)C2(C(=O)Nc3cc(Cl)ccc32)C12CCCCC2 (stereo not given) + CNC(C)C(=O)NC1CN(S(=O)(=O)c2cccc(S(=O)(=O)N3CCC4CCC(C(=O)NC(c5ccccc5)c5ccccc5)N4C(=O)C(NC(=O)C(C)NC)C3)c2)CCC2CCC(C(=O)NC(c3ccccc3)c3ccccc3)N2C1=O , pIC50 read as < 5.52

###

- Tested on: NCI-H510 multicellular tumor spheroid growth, % test/control
- Assay Notes: Anticancer human tumor NCI-H510 cell line growth inhibition [Asc];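 note: spheroids exposed to agents for 7 days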;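 for viability, T/C: 100% = DMSO vehicle control wells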
- Measurement Parameters: second compound 0.01 µM; first compound 0.316 µM; stronger effect = lower value
Measured Attribute: viability, T/C (%)
# output: bare number, implied unit %

{"Compound": "O=C(c1ccc(F)c(F)c1Nc1ccc(I)cc1F)N1CC(O)([C@@H]2CCCCN2)C1 + CNC(C)C(=O)NC1CN(S(=O)(=O)c2cccc(S(=O)(=O)N3CCC4CCC(C(=O)NC(c5ccccc5)c5ccccc5)N4C(=O)C(NC(=O)C(C)NC)C3)c2)CCC2CCC(C(=O)NC(c3ccccc3)c3ccccc3)N2C1=O", "Test System": "NCI-H510 multicellular tumor spheroid growth, % test/control", "viability, T/C (%)": 102}
{"Compound": "CCN1CCN(Cc2ccc(Nc3ncc(F)c(-c4cc(F)c5nc(C)n(C(C)C)c5c4)n3)nc2)CC1 + CNC(C)C(=O)NC1CN(S(=O)(=O)c2cccc(S(=O)(=O)N3CCC4CCC(C(=O)NC(c5ccccc5)c5ccccc5)N4C(=O)C(NC(=O)C(C)NC)C3)c2)CCC2CCC(C(=O)NC(c3ccccc3)c3ccccc3)N2C1=O", "Test System": "NCI-H510 multicellular tumor spheroid growth, % test/control", "viability, T/C (%)": 150}
{"Compound": "C#Cc1c(F)ccc2cc(O)cc(-c3ncc4c(N5CC6CCC(C5)N6)nc(OCC56CCCN5CC(F)C6)nc4c3F)c12 (stereo not given) + CNC(C)C(=O)NC1CN(S(=O)(=O)c2cccc(S(=O)(=O)N3CCC4CCC(C(=O)NC(c5ccccc5)c5ccccc5)N4C(=O)C(NC(=O)C(C)NC)C3)c2)CCC2CCC(C(=O)NC(c3ccccc3)c3ccccc3)N2C1=O", "Test System": "NCI-H510 multicellular tumor spheroid growth, % test/control", "viability, T/C (%)": 97.1}
{"Compound": "O=C(c1cc(Cc2n[nH]c(=O)c3ccccc23)ccc1F)N1CCN(C(=O)C2CC2)CC1 + CNC(C)C(=O)NC1CN(S(=O)(=O)c2cccc(S(=O)(=O)N3CCC4CCC(C(=O)NC(c5ccccc5)c5ccccc5)N4C(=O)C(NC(=O)C(C)NC)C3)c2)CCC2CCC(C(=O)NC(c3ccccc3)c3ccccc3)N2C1=O", "Test System": "NCI-H510 multicellular tumor spheroid growth, % test/control", "viability, T/C (%)": 110}

Now examine the next entry.
Notebook: C=C(F)C(=O)N1CCN(c2nc(OCC3CCCN3C)nc3c2CCN(c2cccc4cccc(Cl)c24)C3)CC1CC#N (stereo not given) + CNC(C)C(=O)NC1CN(S(=O)(=O)c2cccc(S(=O)(=O)N3CCC4CCC(C(=O)NC(c5ccccc5)c5ccccc5)N4C(=O)C(NC(=O)C(C)NC)C3)c2)CCC2CCC(C(=O)NC(c3ccccc3)c3ccccc3)N2C1=O , viability, T/C read as 108
